# MEASUREMENT TARGET: Kdn(a2-3)Gal(b1-4)Glc
# ASSAY NAME: glycan array binding signal (z-score within array); higher = stronger binding
# EXPERIMENTAL SETUP: glycan notation: IUPAC condensed, linker removed
Only a selection was taken, and the strongest signals are over-represented in it overall.
Give measured glycan array binding signal (z-score) for each item. Keep answers brief.
Enter the number alone.

Report glycan array binding signal (z-score) for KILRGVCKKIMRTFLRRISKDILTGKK [NK2 (Sus scrofa)] please.
0.105

Next up: OGAN (protein) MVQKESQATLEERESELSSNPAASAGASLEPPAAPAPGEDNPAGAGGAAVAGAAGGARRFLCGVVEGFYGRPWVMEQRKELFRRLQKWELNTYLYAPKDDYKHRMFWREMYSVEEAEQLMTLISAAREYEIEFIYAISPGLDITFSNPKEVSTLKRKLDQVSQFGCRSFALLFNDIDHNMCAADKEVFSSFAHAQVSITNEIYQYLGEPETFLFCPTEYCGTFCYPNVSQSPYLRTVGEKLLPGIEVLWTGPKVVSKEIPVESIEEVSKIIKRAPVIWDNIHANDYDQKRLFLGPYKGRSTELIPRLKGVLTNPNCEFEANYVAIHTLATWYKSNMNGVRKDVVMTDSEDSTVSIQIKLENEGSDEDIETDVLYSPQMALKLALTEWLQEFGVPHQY
-0.059

Next up: LICBM33A (Lactococcus lactis), Q9CE94 (protein) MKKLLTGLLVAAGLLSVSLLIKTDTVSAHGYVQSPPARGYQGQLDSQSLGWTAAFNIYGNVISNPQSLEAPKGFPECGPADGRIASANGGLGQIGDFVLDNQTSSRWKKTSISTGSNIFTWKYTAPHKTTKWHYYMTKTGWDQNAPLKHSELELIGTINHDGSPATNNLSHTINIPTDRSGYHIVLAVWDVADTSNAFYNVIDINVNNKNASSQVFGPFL
0.82
